- Experiment: protein stability index of a GFP-peptide fusion (yeast GPS) (PSI 1-4); higher = more stable; sorted into four equal gates, so the index is relative within each strain
- Condition: san1∆
Assign 1.0 whenever protein stability index does not fall below 2; assign 0.0 whenever it does.

| Seq string | Discrete label |
| --- | --- |
| EDIIKRTSPIDNVSNTH [NUT2] | 1.0 |
| DTPEGEACGLVKNLALM [RET1] | 1.0 |
| TKIDMPIKNRKNDTHYL [BRN1] | 1.0 |

Dear colleague, could you confirm whether EVNSLLLQVNKTFCEDP [GRR1] has protein stability index at or above 2?
1.0

Given PYEMYKYVHVSEVGNCS [FAS2] , state whether its protein stability index is at least 2.
1.0

Item PSTSSNMDVGNPRKRKA [GAL11] with protein stability index of 2 or above?
1.0

Hi, just wondering whether KEIKTNEYVIKTPVFTT [YMR129W/POM152] shows protein stability index of 2 or higher.
0.0

Quick check, protein stability index >= 2? KLCYVLGVEDITLIDSA [RET1]
0.0

Reported protein stability index at or above 2? GSLARAGKVKSQTPKVE [RPS30A]
1.0

Hello, I need to know if ANFGEILEDFRVIKDFK [YMR153W/NUP53] has measured protein stability index not below 2. Thanks!
1.0

API: above_or_equal(metric=protein stability index, cutoff=2) for item QGEVGAVFIVPKILIRE [SWP82]
0.0

In plain terms: is recorded protein stability index at least 2 for SRKAHGLNAKQLYKARM [POP1] ?
1.0

Entry IYNELSYELIKEECQIE [CSN9] : is its protein stability index no less than 2?
1.0

Quick check: does YPDLKAFHNNLKFLYLL [MED1] have protein stability index greater than or equal to 2?
0.0

Reported protein stability index at or above 2? MAQRTLKNKYESYDAAL [FAS2]
1.0

Check the entry EREPVPLGILHIPICVT [RRP45] : does protein stability index equal or exceed 2?
0.0

Please indicate if the recorded protein stability index for KKYSSKNKYGEINSEDY [SRP68] meets or exceeds 2.
1.0

For this sequence, is measured protein stability index 2 or higher? FGELQFAFLNAMFFGNY [AAR2]
1.0

Record TREKVLEDKLRAVLTPL [RRP46] ; criterion: protein stability index no lower than 2. Met?
1.0

Identify whether the reported protein stability index of the following sequence is 2 or greater: QDSIFQRIIADLSADKP [SRB8]
1.0

Check if protein stability index >= 2 (inclusive). Item: DAWVSAAHYNRERIKRG [PRP8]
1.0

Reported protein stability index reaches at least 2 for IRAGEFDVVLTTFEYII [SNF2] ?
1.0

Is the recorded value of protein stability index equal to or greater than 2 for this sequence? LLQSSIINKLIHIQSKE [POP3]
0.0

Check if protein stability index >= 2 (inclusive). Item: DHKFPIRENKVTYSRVS [BRN1]
1.0

State whether the measured protein stability index reaches 2, counting equality as reaching it, for PISEKGLTLSTTNLDID [RPP1]
1.0

---

- Experiment: protein stability index of a GFP-peptide fusion (yeast GPS) (PSI 1-4); higher = more stable; sorted into four equal gates, so the index is relative within each strain
- Condition: pdr5∆
Measure: protein stability index
Give bare numbers.

Observe how each entry below is paired with its result.
| Seq string | protein stability index |
| --- | --- |
| VSPTVGKLFSDIKVLKR [YIL149C/MLP2] | 3.29 |
| GYKSTVKSLRQGKSKLI [RPL30] | 1.35 |

Please report protein stability index for every entry that follows.
1. LHNIWSNGLLSIVLLLL [YML103C/NUP188]
2. LSEEKEVIFTDVLKSQA [MCD1]
3. ELSEEKYIVKASSGPRY [RPT4]

[1.34, 3.09, 2.72]

Would you mind giving protein stability index for every sequence in the list below?
1. LLENFANFKTSKKYQLA [RRP6]
2. TPSTEESRAQNVFGQDN [SWI3]
3. EYGKHDFKNEESLSEEH [MED8]
4. YIKSMDLISKKTKTSLL [RPR2]
5. LFHFEEDEGEELTDEYL [PRP8]

1: 2.57; 2: 2.77; 3: 3; 4: 2.66; 5: 3.01

---

- Experiment: protein stability index of a GFP-peptide fusion (yeast GPS) (PSI 1-4); higher = more stable; sorted into four equal gates, so the index is relative within each strain
- Condition: doa10∆
Hi there, I'd appreciate the recorded protein stability index for every entry that follows.

These recorded examples may help you get a feel for the data.
| Seq string | protein stability index |
| --- | --- |
| EQISNNSNQQQNPKLFQ [SIN4] | 2.96 |
| IRFRIEREVFVDVKPKS [RPC25] | 2.13 |
| SREIAQPSSSRYNGGND [SMB1] | 3.19 |
| DNTARVIFDASIKDTQN [BRN1] | 2.1 |
| VDVAKDINVKDLKASQR [RPT6] | 3.35 |

Give me protein stability index for each of these sequences, listed below.
1. DGIVVKNAVVRSKFGGD [ARP7]
2. RLGLIPLQSMDIEQLEY [RPB3]
3. TSTNGDSENNEENSSSN [RGR1]
4. DHHPEGLSAREAVKQAA [PRE10]
5. RIVNHKTKLWGFKWLNK [LIN1]
6. GNISSSTVKKKDIVNIS [REC8]
7. SAIVNEDGLLEGLDELP [SOH1]

1: 3.24; 2: 2.75; 3: 2.64; 4: 3.02; 5: 2.87; 6: 3.03; 7: 2.95

Can you give me protein stability index for all of these, one by one?
1. DWNKRFSHLAGGKIINK [BRR2]
2. ERKTLERQQENLLIQRL [SWI3]

2.84
3.07

---

- Experiment: protein stability index of a GFP-peptide fusion (yeast GPS) (PSI 1-4); higher = more stable; sorted into four equal gates, so the index is relative within each strain
- Condition: san1∆
Measure: protein stability index
One number for each entry.

Consider the reported protein stability index for these sequences:
| Seq string | protein stability index |
| --- | --- |
| MEDKISEFLNVPFESLQ [YIL149C/MLP2] | 3.33 |
| QSKLKDVVEYLDKVINK [RPN8] | 2.63 |
| NYEDVGRFLRVPKEGLF [BRR2] | 3.42 |
| QSESRQKRQLHDISKTE [SNU114] | 3.13 |
| ELIQKYLGDGPRLCRQI [RPT2] | 2.76 |

Would you be so kind as to report protein stability index for each listed record?
1. KLRETLVKIDDLSANQR [SMC1]
2. SCTFWSDKESNAYGFIE [YJL039C/NUP192]
3. ILNLLNILTTHLSHPGT [ECM29]

[3.07, 2.83, 1.65]

For every item in the list below, what is its measured protein stability index?
1. TSTNGDSENNEENSSSN [RGR1]
2. EAFNDGNENFEDFDVEH [RPO26]
3. AFLALVDAGIALNSMCA [RRP46]
4. AKKLIQSLPPTLKVNRL [RPL38]

1: 3.36; 2: 2.92; 3: 1.7; 4: 2.02

Batch of 3 sequences: report protein stability index for each.
1. MNKIFTIFKSGEIDFIK [YML103C/NUP188]
2. LASAIASGLLRAYLSHS [CSN12]
3. LNDVVSFLFSAIPLQQV [SWI1]

2.41
1.62
1.94

---

- Experiment: protein stability index of a GFP-peptide fusion (yeast GPS) (PSI 1-4); higher = more stable; sorted into four equal gates, so the index is relative within each strain
- Condition: ubr1∆
Label not satisfied if protein stability index falls below 3; label satisfied in every other case.

| Seq string | Discrete label |
| --- | --- |
| SFSVCKIRCFRYISTLT [IRR1] | not satisfied |
| KLTQKLVTAGVAAAGIT [CYT1] | not satisfied |
| ICLYSSFQKNSLHNTEK [AAR2] | not satisfied |
| LDEVDAALDITNVQRIA [SMC1] | satisfied |

// inclusive: protein stability index at least 3? input: LDDQIFVCEKSIEFAKR [RPN6]
not satisfied

For this sequence, is measured protein stability index 3 or higher? QNEMIDAIAVTKGHGFE [RPL3]
satisfied

Please indicate if the recorded protein stability index for AMTIYWDDHTKKPLSMA [CDC53] meets or exceeds 3.
not satisfied

Can EKKQKTESQDVETRVQN [DPB4] be said to have protein stability index at or above 3?
satisfied

Textbook exercise: given the entry KVLTALSRLQKSGRING [SMC4] , state whether its protein stability index is greater than or equal to 3.
satisfied

Does the sequence TREKVLEDKLRAVLTPL [RRP46] have recorded protein stability index that is 3 or more?
not satisfied

Does protein stability index meet or surpass 3 for SPMLKRIKITANNNMND [GRR1] ?
not satisfied

Form field: protein stability index at least 3? Entry: ISQKLTNVNVKIKDVQQ [SMC3]
not satisfied

Check the entry AKEVYKIHQQLLFKARL [GAL11] : does protein stability index equal or exceed 3?
not satisfied

Could you tell me if the measured protein stability index of YGIVAMAATATDKIGRS [FAS2] reaches 3 or more?
not satisfied

In plain terms: is recorded protein stability index at least 3 for HYERTQTKENKRCVGVI [RPN8] ?
not satisfied

Does TANATANVNASAMPAPY [DSN1] have a reported protein stability index of at least 3?
satisfied

Does the sequence YGEATSPFGAYGEAPTS [RPO21] have recorded protein stability index that is 3 or more?
not satisfied

Record YVNVAISIYNMLPPKSV [SSN2] ; criterion: protein stability index no lower than 3. Met?
not satisfied

Tell me whether protein stability index is at least 3 here: DTLKLRENLHILNEVFT [RRP6]
not satisfied

Hello, I need to know if NDTISEDILQGIFNLLN [NUT1] has measured protein stability index not below 3. Thanks!
not satisfied
